Numbers sourced from patent US7208500B2.

molecular target: FGF-R1 intracellular kinase domain (Homo sapiens, UniProt P11362, C488A/C584S/L457V); construct: starting from the endogenous methionine residue 456 to glutamate 766; made in house; host or cells: baculovirus vector expression system; experiment: FGF-R spectrophotometric assay; format: biochemical; conditions: 50 nM test compound; read-out: FGF-P (% inh @ 50 nM)
Sequence (P11362 456-766 L457V/C488A/C584S): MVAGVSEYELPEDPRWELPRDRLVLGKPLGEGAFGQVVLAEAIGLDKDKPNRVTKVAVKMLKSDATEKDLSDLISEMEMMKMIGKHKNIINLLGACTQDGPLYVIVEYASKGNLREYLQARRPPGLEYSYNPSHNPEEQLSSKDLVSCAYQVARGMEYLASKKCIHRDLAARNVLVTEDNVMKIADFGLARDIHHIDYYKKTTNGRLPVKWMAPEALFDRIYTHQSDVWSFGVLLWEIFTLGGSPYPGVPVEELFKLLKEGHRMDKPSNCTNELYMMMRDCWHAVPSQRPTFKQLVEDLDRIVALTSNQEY
OBSERVED PROPERTY: inhibition at 0.05 µM

Would you please look over these solved cases?
MOLECULE: Cc1cc(NC(=O)Cc2ccc(Oc3ccnc4cc(C(=O)N5CCC5)sc34)cc2Cl)n[nH]1
TESTED ON: FGF-R1 intracellular kinase domain (Homo sapiens, UniProt P11362, C488A/C584S/L457V)
inhibition at 0.05 µM: 0 to 5%

MOLECULE: Cc1cc(C)nc(NC(=O)Cc2ccc(Oc3ccnc4cc(C(=O)N(C)CCCN(C)C)sc34)cc2)c1
TESTED ON: FGF-R1 intracellular kinase domain (Homo sapiens, UniProt P11362, C488A/C584S/L457V)
inhibition at 0.05 µM: 0 to 5%

MOLECULE: Cn1ccnc1-c1cc2nccc(Oc3ccc(CC(=O)Nc4cc5ccccc5cn4)cc3)c2s1
TESTED ON: FGF-R1 intracellular kinase domain (Homo sapiens, UniProt P11362, C488A/C584S/L457V)
inhibition at 0.05 µM: 5 to 10%

MOLECULE: CNC(=O)C(O)c1ccc(Oc2ccnc3cc(-c4nc(C(C)(C)O)cs4)sc23)cc1 (stereo not drawn)
TESTED ON: FGF-R1 intracellular kinase domain (Homo sapiens, UniProt P11362, C488A/C584S/L457V)
inhibition at 0.05 µM: 0 to 5%

MOLECULE: O=C(Cc1ccc(Oc2ccnc3cc(C(=O)N4CC[C@@H](O)C4)sc23)cc1)Nc1ccc(C(F)(F)F)cn1
TESTED ON: FGF-R1 intracellular kinase domain (Homo sapiens, UniProt P11362, C488A/C584S/L457V)
inhibition at 0.05 µM: 5 to 10%

In the following, a different molecule is considered.
Asked: Need inhibition at 0.05 µM, item CNC(=O)C(O)c1ccc(Oc2ccnc3cc(C(=O)N4CCC4)sc23)cc1 (stereo not drawn)
Given back: 0 to 5%

---

molecular target: FGF-R1 intracellular kinase domain (Homo sapiens, UniProt P11362, C488A/C584S/L457V); construct: starting from the endogenous methionine residue 456 to glutamate 766; made in house; host or cells: baculovirus vector expression system; experiment: FGF-R spectrophotometric assay; format: biochemical; conditions: 50 nM test compound; read-out: FGF-P (% inh @ 50 nM)
// inhibition at 0.05 µM lookup, one value per entry

Solved entries (count: 5):
MOLECULE: CCCCNC(=O)C(O)c1ccc(Oc2ccnc3cc(C(=O)N4CCC4)sc23)cc1 (stereo not shown)
OBSERVED PROPERTY: inhibition at 0.05 µM
RESULT: 0 to 5%
--
MOLECULE: CNC(=O)Cc1ccc(Oc2ccnc3cc(C(=O)N4CC[C@@H](O)C4)sc23)cc1Cl
OBSERVED PROPERTY: inhibition at 0.05 µM
RESULT: 0 to 5%
--
MOLECULE: Cc1ccnc(NC(=O)Cc2ccc(Oc3ccnc4cc(C(=O)N5CCC5)sc34)cc2)c1
OBSERVED PROPERTY: inhibition at 0.05 µM
RESULT: 0 to 5%
--
MOLECULE: O=C(Cc1ccc(Oc2ccnc3cc(C(=O)N4CCC4)sc23)cc1)Nc1ccon1
OBSERVED PROPERTY: inhibition at 0.05 µM
RESULT: 0 to 5%
--
MOLECULE: Cc1cc(C)nc(NC(=O)Cc2ccc(Oc3ccnc4cc(C(=O)N5C[C@@H](O)[C@@H](O)C5)sc34)cc2)c1
OBSERVED PROPERTY: inhibition at 0.05 µM
RESULT: 0 to 5%

Asked: Endpoint output: inhibition at 0.05 µM of Cc1cc(C)nc(NC(=O)Cc2ccc(Oc3ccnc4cc(C(=O)N(C)CCN(C)C)sc34)cc2)c1 . Value?
Given back: 5 to 10%

Asked: Could you share which inhibition at 0.05 µM value was measured for O=C(Cc1ccc(Oc2ccnc3cc(C(=O)N4CCC4)sc23)cc1)Nc1ccncc1 ?
Given back: 0 to 5%

Asked: Which inhibition at 0.05 µM value is on record for CNC(=O)Cc1ccc(Oc2ccnc3cc(C(=O)N4CCC4)sc23)cc1Cl ?
Given back: 0 to 5%

---

target: unphosphorylated VEGF-R2D50 (FLVK), cytosolic domain of human VEGF-R2 (Homo sapiens, UniProt P35968, DEL940-989/E990V); construct: VEGF-R2D50 contains residues 806–939 and 990–1171; experiment: VEGF-R2 coupled spectrophotometric assay (FLVK)
Sequence (P35968 with tags, fused parts or gaps DEL940-989/E990V limits assumed): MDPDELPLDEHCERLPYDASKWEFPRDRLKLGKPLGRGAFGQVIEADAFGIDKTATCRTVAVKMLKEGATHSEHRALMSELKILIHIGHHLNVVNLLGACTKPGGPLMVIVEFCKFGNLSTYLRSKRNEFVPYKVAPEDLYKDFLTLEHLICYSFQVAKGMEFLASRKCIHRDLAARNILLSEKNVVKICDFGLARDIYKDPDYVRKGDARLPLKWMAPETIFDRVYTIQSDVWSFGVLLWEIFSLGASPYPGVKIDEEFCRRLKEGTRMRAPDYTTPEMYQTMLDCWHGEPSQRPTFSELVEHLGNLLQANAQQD
pKi: −log10 of the molar value.
Entries and their pKi

Below, each entry is followed by its recorded pKi result.
MOLECULE: CNC(=O)Cc1ccc(Oc2ccnc3cc(C(=O)N4CC[C@H](OC)C4)sc23)cc1
RESULT: < 8.00

MOLECULE: O=C(Cc1ccc(Oc2ccnc3cc(C(=O)N4CCC4)sc23)cc1)Nc1ccon1
RESULT: < 8.00

MOLECULE: Cc1coc(NC(=O)Cc2ccc(Oc3ccnc4cc(C(=O)N5CCC5)sc34)cc2Cl)n1
RESULT: < 8.00

MOLECULE: Cc1cc(C)nc(NC(=O)Cc2ccc(Oc3ccnc4cc(C(=O)N(C)CCN(C)C)sc34)cc2)c1
RESULT: > 9.00

Asked: Dear colleague, I am looking for the recorded pKi of the following molecule: O=C(Cc1ccc(Oc2ccnc3cc(C(=O)N4CCC4)sc23)cc1)Nc1ccc(Cl)cn1
Given back: > 9.00

Asked: I'd like to know its pKi. The molecule in question is O=C(Cc1ccc(Oc2ccnc3cc(C(=O)N4CC[C@@H](O)C4)sc23)cc1)Nc1ccc(C(F)(F)F)cn1
Given back: > 9.00

Asked: Item under review: CNC(=O)C(O)c1ccc(Oc2ccnc3cc(C(=O)N4CC[C@@H](O)C4)sc23)cc1Cl (some centres unmarked) . Reported pKi?
Given back: < 8.00

---

molecular target: unphosphorylated VEGF-R2D50 (FLVK), cytosolic domain of human VEGF-R2 (Homo sapiens, UniProt P35968, DEL940-989/E990V); construct: VEGF-R2D50 contains residues 806–939 and 990–1171; assay: VEGF-R2 coupled spectrophotometric assay (FLVK)
pKi: −log10 of the molar value.
OBSERVED PROPERTY: pKi

Reference set, count: 2
LINE NOTATION: Cc1ccc(CNC(=O)Cc2ccc(Oc3ccnc4cc(-c5nccn5C)sc34)cc2Cl)o1
RESULT: < 8.00
//
LINE NOTATION: Cn1ccnc1-c1cc2nccc(Oc3ccc(CC(=O)Nc4ccc(Cl)cn4)cc3)c2s1
RESULT: > 9.00

// below: pKi requested for another compound
Asked: Consider the compound CNC(=O)Cc1ccc(Oc2ccnc3cc(C(=O)N4CCC4)sc23)cc1Cl and give its measured pKi.
Given back: < 8.00

---

molecular target: unphosphorylated VEGF-R2D50 (FLVK), cytosolic domain of human VEGF-R2 (Homo sapiens, UniProt P35968, DEL940-989/E990V); construct: VEGF-R2D50 contains residues 806–939 and 990–1171; assay: VEGF-R2 coupled spectrophotometric assay (FLVK)
OBSERVED PROPERTY: Ki

COMPOUND: CNC(=O)Cc1ccc(Oc2ccnc3cc(-c4nccn4C)sc23)cc1Cl
Ki: > 0.01 µM

Asked: What does the data say about its Ki? Entry: C=C(C(=O)NC)c1ccc(Oc2ccnc3cc(C(=O)N4CC[C@@H](O)C4)sc23)cc1
Given back: > 0.01 µM

Asked: Looking for the measured Ki of COC(C(=O)Nc1cc(C)no1)c1ccc(Oc2ccnc3cc(C(=O)N4CCC4)sc23)cc1 (centres unmarked) , can you help?
Given back: > 0.01 µM

Asked: Reported Ki for O=C(Cc1ccc(Oc2ccnc3cc(C(=O)N4CCC4)sc23)cc1)Nc1ccc(C(F)(F)F)cn1 : what is it?
Given back: < 0.001 µM

Asked: What value of Ki has been recorded for this entry: Cc1cc(C)nc(NC(=O)Cc2ccc(Oc3ccnc4cc(C(=O)N5CCC5)sc34)cc2Cl)c1
Given back: < 0.001 µM

Asked: Which value of Ki has been reported for O=C(Cc1ccc(Oc2ccnc3cc(C(=O)N4CCC4)sc23)cc1)Nc1nccc2ccccc12 in the records?
Given back: 0.001 to 0.01 µM

Asked: So what's the measured Ki for this one? Cc1cc(C)nc(NC(=O)Cc2ccc(Oc3ccnc4cc(C(=O)N5CC[C@@H](O)C5)sc34)cc2)c1
Given back: < 0.001 µM

Asked: Looking for the measured Ki of CNC(=O)C(O)c1ccc(Oc2ccnc3cc(-c4nc(C(C)(C)O)cs4)sc23)cc1 (centres unmarked) , can you help?
Given back: > 0.01 µM

Asked: Reported Ki for O=C(Nc1ccccn1)C(O)c1ccc(Oc2ccnc3cc(C(=O)N4CCC4)sc23)cc1 (centres unmarked) : what is it?
Given back: > 0.01 µM

Asked: Please give the measured Ki for this compound: Cn1ccnc1-c1cc2nccc(Oc3ccc(CC(=O)Nc4ccc(C(F)(F)F)cn4)cc3)c2s1
Given back: < 0.001 µM

Asked: Name the reported Ki value associated with the compound CCCCNC(=O)C(O)c1ccc(Oc2ccnc3cc(C(=O)N4CCC4)sc23)cc1 (centres unmarked)
Given back: > 0.01 µM

Asked: Consider the compound shown here: O=C(Cc1ccc(Oc2ccnc3cc(C(=O)N4CCC4)sc23)cc1Cl)Nc1ccccn1 What is its recorded Ki?
Given back: 0.001 to 0.01 µM

Asked: Entry under review: CNC(=O)C(O)c1ccc(Oc2ccnc3cc(C(=O)N4CCC4)sc23)cc1 (centres unmarked) . Reported Ki?
Given back: 0.001 to 0.01 µM

Asked: Look at this compound and give its reported Ki. Cc1ccnc(NC(=O)Cc2ccc(Oc3ccnc4cc(C(=O)N5CC[C@@H](O)C5)sc34)cc2)c1
Given back: < 0.001 µM
